system: TK-10 renal; experiment: NCI tumour cell line growth inhibition, 48 h
Answer each item with its documented GI50.

As a guide, the following entries are already answered.
COC(=O)C(NC(=O)c1ccccc1)c1ccc(OC)c(I)c1 (stereo not given)	38.5 µM
CN1CCN(Cc2ccc(NC(=O)c3cncc(C#Cc4cnc5cccnn45)c3)cc2C(F)(F)F)CC1	1.88 µM
N#Cc1c(N/N=C/c2c(Cl)cccc2Cl)nc(N)nc1N1CCCC1	5.9 µM
ClCc1ccc(Cn2cnc3nc(Cl)nc(Cl)c32)cc1	0.43 µM

Note: attention shifts to another entry.
Task: Given the entry COc1cccc2c(Nc3ccc(C(=O)NCCN4CCNCC4)cc3)cc(-c3ccccc3)nc12 , report its measured GI50.
Output: 57 µM

###

tested on: T-47D breast; test: NCI tumour cell line growth inhibition, 48 h
Answer each item with its documented TGI.
Answers are plain numbers, in µM.

As a guide, the following entries are already answered.
COC1=C(C)C(=O)C2=C(C1=O)C1C3CC4=C(C(=O)C(OC)=C(C)C4=O)C(CNC(=O)C(C)=O)N3C(C#N)C(C2)N1C (centres undefined)	0.00608
Oc1ccc(CCNc2nc3ccccc3c3[nH]c4ccccc4c23)cc1	6.34
O=C(Nc1cccc(C(F)(F)F)c1)Nc1ccc(OCc2nnc(-c3ccccc3)o2)c(F)c1	16.1
CCN(CC)CCCNc1nnc(C)c2[nH]c3ccccc3c12	68.9
CCCCCNC(=O)OC1CCn2c1nc1c2C(=O)C(C)=C(N2CC2)C1=O (centres undefined)	7.16
COc1cc2c(cc1OCCCN1CCN(CCCn3c4ccccc4c4ccccc43)CC1)N=C[C@@H]1CCCN1C2=O	0.868
Cc1c(Cl)cc(C(C)(C)C)c(O)c1Cc1c(C)c(Cl)cc(C(C)(C)C)c1O	13.1

Note: attention shifts to another entry.
Task: Identify the measured TGI of Cc1c(-c2ccc(N3CCc4cccc(C(=O)Nc5nc6ccccc6s5)c4C3)nc2C(=O)O)cnn1CC12CC3CC(CC(C3)C1)C2 for T-47D breast.
Output: 30.7

###

tested on: HS 578T breast; experiment: NCI tumour cell line growth inhibition, 48 h
property: TGI

As a guide, the following entries are already answered.
N#Cc1c(N/N=C/c2c(Cl)cccc2Cl)nc(N)nc1N1CCCC1	> 100 µM
COc1ccc(-c2cc(-c3ccc(Nc4ccnc5cc(C(F)(F)F)ccc45)cc3)nc(N)c2C#N)c2ccccc12	> 100 µM
O=C1CSC(c2cccc(Oc3ccccc3)c2)N1c1cc(Cl)ccc1Cl (stereo not given)	77.7 µM
COc1ccc(Cl)cc1Nc1nc(C(F)(F)F)ccc1C(=O)N/N=C/c1ccc(Cl)cc1	> 100 µM
CCOC(=O)C1(NC(=O)OC(C)(C)C)CCc2[nH]oc(=O)c2C1 (stereo not given)	> 100 µM

Please look at the items below and tell me TGI for each one, in order.
1. O=C(Nc1cccc(C(F)(F)F)c1)Nc1cc(S(=O)(=O)NC2CC2)ccc1-c1ccsc1
2. CC(C)[C@H](NC(=O)OCc1ccccc1)C(=O)N[C@H](/C=C/C(=O)OC(C)(C)C)CO
3. CO[C@@H](c1ccccc1)[C@H](O)[C@@](O)(c1ccccc1)P(=O)(OC)OC
4. CC(C)S1=C2C(=O)CC(C)(C)CC2=Nc2ccccc21 (stereo not given)
5. O=C1c2sccc2C(=O)c2c(CO)csc21

Output:
1: 35.8 µM; 2: > 100 µM; 3: > 100 µM; 4: > 100 µM; 5: 33.7 µM
